B1: library; numbered along this chain (parent)
chain: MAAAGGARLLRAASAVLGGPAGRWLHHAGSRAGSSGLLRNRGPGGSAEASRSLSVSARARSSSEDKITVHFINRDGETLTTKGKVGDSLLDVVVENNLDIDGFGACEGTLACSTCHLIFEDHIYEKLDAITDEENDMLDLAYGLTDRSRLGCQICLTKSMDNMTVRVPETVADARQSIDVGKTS

Variants of: B1
Experiment: scaled log2 fold change in cell abundance, elesclomol vs control (0 = silent mean, 1 = nonsense mean) (scaled log2 ratio); higher = higher viability under elesclomol (loss of FDX1 cuproptosis function);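 also: variant abundance is its share of total variant reads in each endpoint sample, from next-generation sequencing of the integrated ORF PCR-amplified out of genomic DNA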
Settings: with HEK293T FDX1 KO; elesclomol 40 nM; glucose 10 mM; 11 days
Classify by scaled log2 fold change. Ranges: L = under -0.1, M = from -0.1 up to 0.3, H = 0.3 and over

**Query** Consider V93C . To which scaled log2 fold change class does it belong?
**Result** M

**Query** Consider T109C . To which scaled log2 fold change class does it belong?
**Result** L

**Query** Consider R23N . To which scaled log2 fold change class does it belong?
**Result** L

**Query** Consider D91I . To which scaled log2 fold change class does it belong?
**Result** L

**Query** Consider Y142T . To which scaled log2 fold change class does it belong?
**Result** H

**Query** Consider T170S . To which scaled log2 fold change class does it belong?
**Result** L

**Query** Consider C115S . To which scaled log2 fold change class does it belong?
**Result** H

**Query** Consider E133M . To which scaled log2 fold change class does it belong?
**Result** L

**Query** Consider D99V . To which scaled log2 fold change class does it belong?
**Result** L

**Query** Consider A141K . To which scaled log2 fold change class does it belong?
**Result** M

**Query** Consider E120S . To which scaled log2 fold change class does it belong?
**Result** L

**Query** Consider L38T . To which scaled log2 fold change class does it belong?
**Result** H

**Query** Consider T170K . To which scaled log2 fold change class does it belong?
**Result** H

**Query** Consider A174F . To which scaled log2 fold change class does it belong?
**Result** L

**Query** Consider G104L . To which scaled log2 fold change class does it belong?
**Result** H

**Query** Consider G42Q . To which scaled log2 fold change class does it belong?
**Result** L

**Query** Consider L79Q . To which scaled log2 fold change class does it belong?
**Result** L

**Query** Consider D146N . To which scaled log2 fold change class does it belong?
**Result** H

**Query** Consider L90G . To which scaled log2 fold change class does it belong?
**Result** M

**Query** Consider E77T . To which scaled log2 fold change class does it belong?
**Result** L

**Query** Consider S56Y . To which scaled log2 fold change class does it belong?
**Result** H

**Query** Consider A2W . To which scaled log2 fold change class does it belong?
**Result** L

**Query** Consider V167E . To which scaled log2 fold change class does it belong?
**Result** M

**Query** Consider D121V . To which scaled log2 fold change class does it belong?
**Result** H

**Query** Consider E133V . To which scaled log2 fold change class does it belong?
**Result** M

**Query** Consider G29E . To which scaled log2 fold change class does it belong?
**Result** H

**Query** Consider D139E . To which scaled log2 fold change class does it belong?
**Result** H

**Query** Consider G151C . To which scaled log2 fold change class does it belong?
**Result** L

**Query** Consider G143R . To which scaled log2 fold change class does it belong?
**Result** L

**Query** Consider A28C . To which scaled log2 fold change class does it belong?
**Result** M

**Query** Consider S61L . To which scaled log2 fold change class does it belong?
**Result** M

**Query** Consider K84W . To which scaled log2 fold change class does it belong?
**Result** L

**Query** Consider H116N . To which scaled log2 fold change class does it belong?
**Result** L

**Query** Consider E95A . To which scaled log2 fold change class does it belong?
**Result** L

**Query** Consider A7Y . To which scaled log2 fold change class does it belong?
**Result** H

**Query** Consider M163C . To which scaled log2 fold change class does it belong?
**Result** H

**Query** Consider T109M . To which scaled log2 fold change class does it belong?
**Result** H

**Query** Consider G143W . To which scaled log2 fold change class does it belong?
**Result** L

**Query** Consider D179T . To which scaled log2 fold change class does it belong?
**Result** M

**Query** Consider D136S . To which scaled log2 fold change class does it belong?
**Result** H

**Query** Consider D173F . To which scaled log2 fold change class does it belong?
**Result** M

**Query** Consider A105P . To which scaled log2 fold change class does it belong?
**Result** H

**Query** Consider F71N . To which scaled log2 fold change class does it belong?
**Result** H

**Query** Consider G44M . To which scaled log2 fold change class does it belong?
**Result** H

**Query** Consider D173Q . To which scaled log2 fold change class does it belong?
**Result** M

**Query** Consider I67M . To which scaled log2 fold change class does it belong?
**Result** M

**Query** Consider I178Y . To which scaled log2 fold change class does it belong?
**Result** M

**Query** Consider G181E . To which scaled log2 fold change class does it belong?
**Result** L

**Query** Consider A12R . To which scaled log2 fold change class does it belong?
**Result** H

**Query** Consider A172I . To which scaled log2 fold change class does it belong?
**Result** H

**Query** Consider N40K . To which scaled log2 fold change class does it belong?
**Result** H

**Query** Consider G19M . To which scaled log2 fold change class does it belong?
**Result** L

**Query** Consider S62T . To which scaled log2 fold change class does it belong?
**Result** L

**Query** Consider A7K . To which scaled log2 fold change class does it belong?
**Result** L

**Query** Consider I118R . To which scaled log2 fold change class does it belong?
**Result** L

**Query** Consider Y124N . To which scaled log2 fold change class does it belong?
**Result** H

**Query** Consider G6Q . To which scaled log2 fold change class does it belong?
**Result** M

**Query** Consider E77V . To which scaled log2 fold change class does it belong?
**Result** L

**Query** Consider V167S . To which scaled log2 fold change class does it belong?
**Result** M

**Query** Consider E120F . To which scaled log2 fold change class does it belong?
**Result** M

**Query** Consider I178W . To which scaled log2 fold change class does it belong?
**Result** L

**Query** Consider S148L . To which scaled log2 fold change class does it belong?
**Result** H

**Query** Consider S159R . To which scaled log2 fold change class does it belong?
**Result** M

**Query** Consider P20H . To which scaled log2 fold change class does it belong?
**Result** M

**Query** Consider L127S . To which scaled log2 fold change class does it belong?
**Result** H

**Query** Consider C155S . To which scaled log2 fold change class does it belong?
**Result** L

**Query** Consider A3M . To which scaled log2 fold change class does it belong?
**Result** H

**Query** Consider T157Y . To which scaled log2 fold change class does it belong?
**Result** L

**Query** Consider N97V . To which scaled log2 fold change class does it belong?
**Result** L

**Query** Consider S177Y . To which scaled log2 fold change class does it belong?
**Result** M

**Query** Consider E95Y . To which scaled log2 fold change class does it belong?
**Result** L

**Query** Consider R58S . To which scaled log2 fold change class does it belong?
**Result** L

**Query** Consider G44F . To which scaled log2 fold change class does it belong?
**Result** M

**Query** Consider S159F . To which scaled log2 fold change class does it belong?
**Result** H

**Query** Consider H27D . To which scaled log2 fold change class does it belong?
**Result** L

**Query** Consider R8E . To which scaled log2 fold change class does it belong?
**Result** L

**Query** Consider D173C . To which scaled log2 fold change class does it belong?
**Result** M

**Query** Consider M160F . To which scaled log2 fold change class does it belong?
**Result** M

**Query** Consider E48S . To which scaled log2 fold change class does it belong?
**Result** H

**Query** Consider E107I . To which scaled log2 fold change class does it belong?
**Result** M

**Query** Consider A141T . To which scaled log2 fold change class does it belong?
**Result** H

**Query** Consider N73L . To which scaled log2 fold change class does it belong?
**Result** M

**Query** Consider D139S . To which scaled log2 fold change class does it belong?
**Result** L

**Query** Consider P168I . To which scaled log2 fold change class does it belong?
**Result** H

**Query** Consider G76E . To which scaled log2 fold change class does it belong?
**Result** M

**Query** Consider I154A . To which scaled log2 fold change class does it belong?
**Result** H

**Query** Consider D87P . To which scaled log2 fold change class does it belong?
**Result** M

**Query** Consider R60E . To which scaled log2 fold change class does it belong?
**Result** M

**Query** Consider P43A . To which scaled log2 fold change class does it belong?
**Result** H

**Query** Consider T145A . To which scaled log2 fold change class does it belong?
**Result** M

**Query** Consider L9C . To which scaled log2 fold change class does it belong?
**Result** M
